Tested on: RPMI-8226 leukemia
ASSAY: NCI-60 one-dose screen, 48 h (100 = growth as untreated, 0 = no growth, -100 = all killed)
MEASUREMENT SETUP: 10 µM unless noted
Compounds without any hit were thinned out: in the full panel of roughly 83,000, 20% have a hit.
Exercise: for every item that follows, state its recorded growth.
Could you give me the number in %? Just the number is fine.

# molecule `O=C(Nc1ccccc1)c1ccco1` ; its growth = 105

# molecule `NC(=O)OCCO` ; its growth = 104

# molecule `NC(=S)N/N=C/c1ccc(Cl)cc1` ; its growth = 97.8

# molecule `CCOC(OCC)C(=O)c1ccccc1` ; its growth = 99.8

# molecule `Cc1ccc2[nH]c3ccccc3c2c1` ; its growth = 106

# molecule `Nc1nc2nnc(-c3ccccc3)c(-c3ccccc3)n2n1` ; its growth = 50.7

# molecule Nc1ccn(C2CC(N)C(CO)O2)c(=O)n1 (stereo not drawn) ; its growth = 31.5

# molecule `N#C/C(=C\c1ccc2c(c1)OCO2)c1ccccc1` ; its growth = 74.8

---

System: HT29 colon
ASSAY: NCI-60 one-dose screen, 48 h (100 = growth as untreated, 0 = no growth, -100 = all killed)
MEASUREMENT SETUP: 10 µM unless noted
About 83,000 compounds went through this panel and 20% of them were active in at least one assay; those are over-represented in the sample as a whole.
Exercise: for every item that follows, state its recorded growth.
Could you give me the number in %? Just the number is fine.

# compound `CNc1ccccc1C(N)=O` ; its growth = 103

# compound `Nc1cc(F)ccc1[N+](=O)[O-]` ; its growth = 109

# compound `Nc1cccc2cccc(O)c12` ; its growth = 107

# compound `CCOC(C=O)OCC` ; its growth = 99.7

# compound `COc1ccc(Nc2cc(Cl)ccc2C(=O)O)cn1` ; its growth = 106

# compound CCCC(OC(C)=O)c1ccc2c(c1)OCO2 (centres undefined) ; its growth = 103

# compound `C1C[S+]2CC[S+]1CC2` ; its growth = 98.9

# compound `C1CCc2onc(-c3noc4c3CCCCC4)c2CC1` ; its growth = 103

# compound CC(=O)OC(C)c1cccc(C#N)c1 (centres undefined) ; its growth = 104

---

Tested on: NCI-H226 lung
ASSAY: NCI-60 one-dose screen, 48 h
MEASUREMENT SETUP: 10 µM unless noted
This is part of a sample that, as a whole, favours compounds with a hit. Of some 83,000 tested, about 20% had one in any assay. Activity calls are given as the source filed them. The calls were made as follows: active = growth percent below 10; inactive = the rest.
Respond only with the outcome that fits, drawn from true for active, false for inactive

INPUT: Please state the recorded outcome for this molecule: `O=C(NC1CCCCC1)c1ccc(Cl)cc1`
OUTPUT: false

INPUT: Please state the recorded outcome for this molecule: `CC(=O)NCNC(C)=O`
OUTPUT: false

INPUT: Please state the recorded outcome for this molecule: `Cc1ccc(S(N)(=O)=O)cc1Cl`
OUTPUT: false

INPUT: Please state the recorded outcome for this molecule: `Cn1c(=O)c2nc3c(=O)n(C)c(=O)n(C)c3nc2n(C)c1=O`
OUTPUT: false

INPUT: Please state the recorded outcome for this molecule: `O=C(OC1CCCC1)c1ccccc1Cl`
OUTPUT: false

INPUT: Please state the recorded outcome for this molecule: `COc1ccc2c(c1)Nc1ccccc1S2`
OUTPUT: false

INPUT: Please state the recorded outcome for this molecule: `Nc1c(Br)cc(O)c2c1C(=O)c1ccccc1C2=O`
OUTPUT: false

INPUT: Please state the recorded outcome for this molecule: C=C1CC2(OC1=O)C(=O)N(C)c1ccc(I)cc12 (configuration not stated)
OUTPUT: true

INPUT: Please state the recorded outcome for this molecule: `Nc1nc(N)nc(N2CCCCC2)n1`
OUTPUT: false

INPUT: Please state the recorded outcome for this molecule: `CCCCc1ccc2nc(NC(=O)OC)[nH]c2c1`
OUTPUT: false

INPUT: Please state the recorded outcome for this molecule: `Cc1ccc(N2C(=O)c3cccc4c(N)c(S(=O)(=O)O)cc(c34)C2=O)cc1`
OUTPUT: false

INPUT: Please state the recorded outcome for this molecule: `CCCCCCCCNC(=O)C(C)C`
OUTPUT: false

INPUT: Please state the recorded outcome for this molecule: `CC(=O)Nc1ccc(/C=C2\SC(=S)N(/C=C(\C(C)=O)C(N)=O)C2=O)cc1`
OUTPUT: false

INPUT: Please state the recorded outcome for this molecule: Cc1ccccc1CC(N)C(=O)O (configuration not stated)
OUTPUT: false

INPUT: Please state the recorded outcome for this molecule: `COc1cccc(C(=O)NNC(=O)c2cccc3ccccc23)c1`
OUTPUT: false

INPUT: Please state the recorded outcome for this molecule: `O=C(O)Cc1ccc(Cl)cc1`
OUTPUT: false

INPUT: Please state the recorded outcome for this molecule: C#CC(O)c1ccccc1 (configuration not stated)
OUTPUT: false

INPUT: Please state the recorded outcome for this molecule: `Cc1ccc(C(C)C)c(OCC(=O)O)c1`
OUTPUT: false

INPUT: Please state the recorded outcome for this molecule: OC(CBr)CCBr (configuration not stated)
OUTPUT: false

INPUT: Please state the recorded outcome for this molecule: `CCOc1ccc(C(=O)NCC(C)C)cc1`
OUTPUT: false

INPUT: Please state the recorded outcome for this molecule: COc1cc2c(c(OC)c1OC)-c1ccc(SC)c(=O)cc1[C@@H](NC1OC(CO)C(O)C(O)C1O)CC2 (some centres not stated)
OUTPUT: false

INPUT: Please state the recorded outcome for this molecule: `O=C(O)c1cc(I)ccc1O`
OUTPUT: false

INPUT: Please state the recorded outcome for this molecule: O=S(Cc1ccccc1)/C(=C/NC(=S)Nc1ccccc1)c1ccccc1 (configuration not stated)
OUTPUT: false

INPUT: Please state the recorded outcome for this molecule: `CCCc1cccc(CCC)c1NC(=O)Nc1cc(Cl)cc(Cl)c1`
OUTPUT: false

INPUT: Please state the recorded outcome for this molecule: `C1CCc2onc(-c3noc4c3CCCCC4)c2CC1`
OUTPUT: false

INPUT: Please state the recorded outcome for this molecule: `OC(CCN1CCCCC1)(c1ccccc1)c1ccccc1`
OUTPUT: false

INPUT: Please state the recorded outcome for this molecule: `O=Cc1ccc(Cl)c(Cl)c1`
OUTPUT: false

INPUT: Please state the recorded outcome for this molecule: `C/C(=N\N=C(/C)c1cccc([N+](=O)[O-])c1)c1cccc([N+](=O)[O-])c1`
OUTPUT: false

INPUT: Please state the recorded outcome for this molecule: `Nc1nc(Cl)cc(Cl)n1`
OUTPUT: false

INPUT: Please state the recorded outcome for this molecule: `NNc1ncccn1`
OUTPUT: false

INPUT: Please state the recorded outcome for this molecule: `O=C(NCc1ccco1)Nc1cccc2c(NC(=O)NCc3ccco3)cccc12`
OUTPUT: false

INPUT: Please state the recorded outcome for this molecule: `O=C(O)c1ccc(OCc2ccccc2)cc1`
OUTPUT: false
